Attribution: ChEMBL document CHEMBL1122462

# Test system: Rattus norvegicus
# assay.comment: In vivo Triglyceride lowering activity at dose as 0.03 % of the diet
# Assay type: functional
Decide by triglyceride lowering activity: equal to or exceeding 90% means True, less means False.

Inquiry: Exam item: decide whether the reported triglyceride lowering activity for O=C(O)c1ccc(NCC(F)(F)C(F)(F)C(F)(F)C(F)(F)C(F)(F)C(F)(F)C(F)(F)F)cc1 is at least 90%.
Reply text: False

Inquiry: Assess whether reported triglyceride lowering activity for CCCC[S+]([O-])CCCCCCCCCCCNc1ccc(C(=O)O)cc1 (stereo not given) sits at 90% or higher.
Reply text: True

---

# experimental.system: Sterol O-acyltransferase 1 (Rattus norvegicus) (UniProt O70536)
# Sequence (O70536 whole entry): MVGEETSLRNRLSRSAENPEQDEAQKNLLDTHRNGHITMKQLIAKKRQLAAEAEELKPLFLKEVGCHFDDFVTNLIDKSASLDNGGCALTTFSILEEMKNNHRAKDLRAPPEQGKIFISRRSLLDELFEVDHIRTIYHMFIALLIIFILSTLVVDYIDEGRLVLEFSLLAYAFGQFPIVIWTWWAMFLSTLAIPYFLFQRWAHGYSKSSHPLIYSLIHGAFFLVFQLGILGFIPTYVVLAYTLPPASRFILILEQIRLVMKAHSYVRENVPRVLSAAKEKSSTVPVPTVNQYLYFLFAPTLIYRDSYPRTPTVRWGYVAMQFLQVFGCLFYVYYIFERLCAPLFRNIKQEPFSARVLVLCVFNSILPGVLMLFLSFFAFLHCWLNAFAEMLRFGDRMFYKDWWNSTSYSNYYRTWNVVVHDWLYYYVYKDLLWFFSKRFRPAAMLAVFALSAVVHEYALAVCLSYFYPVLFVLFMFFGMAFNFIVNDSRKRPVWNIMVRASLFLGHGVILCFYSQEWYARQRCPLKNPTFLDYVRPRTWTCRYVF
# assay.comment: In vitro inhibitory activity against acyl coenzyme A:cholesterol acyltransferase
# Design: concentration or dose not given beside the values
# assay.context: concentration not given here
readout.name: inhibition

Some compounds with recorded inhibition:
compound	experimental.system	inhibition
CCCCSCCCCCCCCCCCNc1ccc(C(=O)O)cc1	Sterol O-acyltransferase 1 (Rattus norvegicus) (UniProt O70536)	< 40%
CCOC(=O)c1ccc(NCCCC#N)cc1	Sterol O-acyltransferase 1 (Rattus norvegicus) (UniProt O70536)	26%
CCOC(=O)c1ccc(NCCCCCCCCCCCO)cc1	Sterol O-acyltransferase 1 (Rattus norvegicus) (UniProt O70536)	< 60%
CCCCCC(=O)CCCCCCCCCCNc1ccc(C(=O)OCC)cc1	Sterol O-acyltransferase 1 (Rattus norvegicus) (UniProt O70536)	< 44%
CCCCCCCCCCCCCCCCNc1ccc(C(=O)O)cc1	Sterol O-acyltransferase 1 (Rattus norvegicus) (UniProt O70536)	< 57%

Inquiry: Name the recorded inhibition for CCCC(Nc1ccc(C(=O)OCC)cc1)C(=O)OCC (stereo not drawn) .
Reply text: 44%

Inquiry: So what does the record say about inhibition for CCOC(=O)c1ccc(NCCCCCCCCCCCCCCCCBr)cc1 ?
Reply text: 10%

Inquiry: Could you tell me which inhibition is on file for CCCCCCCCCCCCCCCCN(C(=O)CCC(=O)O)c1ccc(C(=O)O)cc1 ?
Reply text: 13%
